Tested on: MS2 coat protein
Assay procedure: apparent KD of MS2 coat protein; designed switch direction (-1 OFF switch, 1 ON switch): -1; higher = weaker reporter binding
Run conditions: input ligand: none
Quantity: apparent KD of MS2 coat protein (nM)
Answers are plain numbers, in nM.

Here's what some known entries look like.
>>> quantitative_result("CUGAGCUGAGGAUAUACAUGAGGAUCACCCAUGUUUUGUAGAUAGUGAAGAAGUAGAUGUAGAAGGCAGUUCGG [Mod of JL 24 - Jieux - Exclusion 3] (Eterna round: R97, puzzle: Exclusion 3)")
146
>>> quantitative_result("ACUGGUCGAGGAUAUAUAUGACGUGCUUCGGCACGAAGAUCACAUGAGGAUCACCCAUGUAGAAGGCGACCAGU [E2/8-A2] (Eterna round: R97, puzzle: Exclusion 2)")
130
>>> quantitative_result("AAUAACAGAGGAUAUACUGUUUUAUGUGUUUGUUAUUUUGAACAUGAGGAUCACCCAUGUAGAAGGCUGAAUAA [JMF 23] (Eterna round: R96, puzzle: Exclusion 2)")
25.3
>>> quantitative_result("CAUUGUGUUGAGGAUAUGCGCCGGCUCGCUGGCGCAGAAGGCGGCACAUGAGGAUCACCCAUGUCAGUUCGCGA [salish99_ex6_r004_416] (Eterna round: R97, puzzle: Exclusion 6)")
38
>>> quantitative_result("GCGUAGUAUGUAGGAUAUCGGUCAGUUUCUGAUCGAGAAGGACAUGAGGAUCACCCAUGUAAAACGUCCGGUUUCUGGAUACGC [JL ENG1 3.57] (Eterna round: R96, puzzle: Exclusion NG 1)")
23

Go through the items and report each one's apparent KD of MS2 coat protein.
1. UCAUGGGAGGCAGCUGCCCACAUGAGGAUCACCCAUGUUUUAGACAAACGGGUACAAGCUUUUAAUGCUCUUCUUUG [Eternabot (L2) Solution 49] (Eterna round: R97, puzzle: Sensor, turn-off variant 1)
2. UAUAAGCUAGGAUAUACUGGCACACAACUCAUAAAUCCACGACAUGAGGAUCACCCAUGUAGAAGGAGCAAAUA [EX2 A.27] (Eterna round: R97, puzzle: Exclusion 2)
3. CUUCGUGUCAAGGAUAUACAGCAACUAUCCGGAGUAGAAGGUGGCACUUGAGGAUCACCCAAGUGCGUGGGUGU [Uszaqubi] (Eterna round: R97, puzzle: Exclusion 6)
4. ACAUGACUGCUAGGAUAUAGAUGACAUGAGGAUCACCCAUGUUAUCCCAUGUUGAUGGAAACCGACUAGAAGGAGCAGCAUAUG [Ex NG2 #10] (Eterna round: R96, puzzle: Exclusion NG 2)
5. CGUCAGUGAGGAUAUGGUAACGUUUACAUGAGGAUCACCCAUGUUUCAUGGGACUAGAGACUAGAAGGCACUGACG [JR_Ex5_Sub030] (Eterna round: R97, puzzle: Exclusion 5)

Reply text:
1. 248
2. 14.4
3. 25.7
4. 33
5. 416

---

Test system: K4 kissing-loop RNA reporter;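 also: bound reporter read as fluorescence of individual clusters on recovered sequencing chips by microscopy, with normalized cluster intensities fitted with a binding model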
Assay procedure: apparent KD of K4 kissing-loop reporter; higher = weaker reporter binding
Run conditions: Eterna round: R107; input ligand: tryptophan 2.4 mM
Quantity: apparent KD of K4 kissing-loop reporter
Record the result as a number with its unit.

>>> result("CUCGAGUGAUGUUCGAUUAUUUAUACAGAUACCAGUGAAUUUUAACACCCUUGGCAGCUGGUUGUAUCAUUUUUUUUUACUAAAG [JR_ExcTheophyA_Sub008]")
"133 nM"
>>> result("UGAUUGGCGAAAGUAGUGAUGUUACGAAUAUAGGAUAUUAGAGGAAUAAGAAGGAUAAAGGAGAAAUAGGUAAAUUGUUGGUUGG [whbob_SS_FMNA__2th169]")
"93.4 nM"
>>> result("UGUGGAGAAUAUGAUACCAGCAGUGAGAGAGAGGAAGUAUAGUGAUGUUAUAUGAGAGAAUGCCCUUGGCAGCAUAUGUAGAAGG [SSTheophylB.F]")
"128 nM"
>>> result("UCUGAAUUAUCUGAUACCAGACUUUUUGUAUUUAUUAAAACUAGUGAUGUUAGUUUAUCUGUCCCUUGGCAGCAGUUUCUACAGA [JR_Nu_ExcTheophyB_Sub022]")
"72.5 nM"
>>> result("AGCCAGCGUACAUCACUCUGGCUGCUGGAUACCAGCUCGGAAACGAGCCCUUGGCAGCCAGAACUUGCAGUGAUGUUGCAAGUAA [Design12]")
"345 nM"

Inquiry: Would you kindly share the measured apparent KD of K4 kissing-loop reporter for UGCAGUGAUGUUGCUAUUUUUCUUGAUUAACGAGGACCGGUACGGCCGCCACUCGAUUUCUCUCUAAUCCAGUAUGUUGUUUGAU [whbob_EX_Tryp_A_t4] ?
Reply text: 81.1 nM
